This section presents compounds with their documented IC50 values.
target: Tyrosine-protein kinase ITK/TSK (Homo sapiens, UniProt Q08881); experiment: ITK Target Modulation PLC-gamma Assay: Compounds were serially diluted into DMSO, and then into media to concentrations 10× that of the final assay concentration. Compounds were then added to the cells with the final assay DMSO concentration being 0.1%. Cells were incubated for 1 hour at 37° C. Following compound incubation, αCD3 Dynabeads were added at 1 bead/cell to each assay well and incubated at 37° C. for 7 minutes. Unstimulated control wells received media only. The plate was then placed on a 96-well magnetic plate for an additional 60 seconds (total assay stimulation time equals 8 minutes). The plate was then dumped and gently patted dry on a paper towel. 50 ul of complete Meso Scale Discovery (MSD) Lysis buffer was then added to each well. Samples were assayed for phospho-PLCγ1 using Meso Scale Discovery technology.
Sequence (Q08881 whole entry): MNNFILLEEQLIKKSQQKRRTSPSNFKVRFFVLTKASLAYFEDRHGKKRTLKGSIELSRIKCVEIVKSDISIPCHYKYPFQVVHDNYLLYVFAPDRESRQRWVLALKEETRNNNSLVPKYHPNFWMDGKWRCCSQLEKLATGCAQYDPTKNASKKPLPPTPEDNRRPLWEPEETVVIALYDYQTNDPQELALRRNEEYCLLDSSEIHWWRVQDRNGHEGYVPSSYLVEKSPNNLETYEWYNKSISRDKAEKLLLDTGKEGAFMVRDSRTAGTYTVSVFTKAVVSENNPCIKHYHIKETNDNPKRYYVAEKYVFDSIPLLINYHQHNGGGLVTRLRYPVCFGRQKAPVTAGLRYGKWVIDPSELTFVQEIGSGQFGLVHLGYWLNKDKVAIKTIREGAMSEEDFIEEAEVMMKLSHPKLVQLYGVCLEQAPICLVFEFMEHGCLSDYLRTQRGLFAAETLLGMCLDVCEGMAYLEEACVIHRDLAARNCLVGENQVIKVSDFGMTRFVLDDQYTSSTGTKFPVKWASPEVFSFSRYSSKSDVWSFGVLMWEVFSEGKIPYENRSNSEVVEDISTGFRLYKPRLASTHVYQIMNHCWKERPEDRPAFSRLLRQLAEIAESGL

Example results:
| molecular-string | target-or-system | experimental-result |
| --- | --- | --- |
| C=CC(=O)Nc1cc(-c2cnc3[nH]cc(-c4ccnc(OC)c4)c3c2)cc(C(O)(CC)CC)c1 | Tyrosine-protein kinase ITK/TSK (Homo sapiens, UniProt Q08881) | 1000 to 5000 nM |
| Cc1cc(-c2c[nH]c3ncc(-c4cccc(/C=C(\C#N)C(N)=O)c4)cc23)ccn1 | Tyrosine-protein kinase ITK/TSK (Homo sapiens, UniProt Q08881) | 1000 to 5000 nM |
| C=CC(=O)Nc1cccc(-c2cnc3[nH]cc(-c4cc(NC)ncn4)c3c2)c1 | Tyrosine-protein kinase ITK/TSK (Homo sapiens, UniProt Q08881) | 1000 to 5000 nM |
| C=CC(=O)Nc1cccc(-c2cnc3[nH]cc(-c4ccnc(NC)c4)c3c2)c1 | Tyrosine-protein kinase ITK/TSK (Homo sapiens, UniProt Q08881) | < 1000 nM |

Continue with the next compound.
IC50 recorded for this compound, C=CC(=O)Nc1cccc(-c2cnc3[nH]cc(-c4ccc(=O)n(CC5CC5)c4)c3c2)c1 , is < 1000 nM

Taken from ChEMBL document CHEMBL5725323.
